# target.entity: T1, human CD98, endogenously expressed on Molt-4 human acute lymphoblastic leukemia cells (human)
# T1 chain: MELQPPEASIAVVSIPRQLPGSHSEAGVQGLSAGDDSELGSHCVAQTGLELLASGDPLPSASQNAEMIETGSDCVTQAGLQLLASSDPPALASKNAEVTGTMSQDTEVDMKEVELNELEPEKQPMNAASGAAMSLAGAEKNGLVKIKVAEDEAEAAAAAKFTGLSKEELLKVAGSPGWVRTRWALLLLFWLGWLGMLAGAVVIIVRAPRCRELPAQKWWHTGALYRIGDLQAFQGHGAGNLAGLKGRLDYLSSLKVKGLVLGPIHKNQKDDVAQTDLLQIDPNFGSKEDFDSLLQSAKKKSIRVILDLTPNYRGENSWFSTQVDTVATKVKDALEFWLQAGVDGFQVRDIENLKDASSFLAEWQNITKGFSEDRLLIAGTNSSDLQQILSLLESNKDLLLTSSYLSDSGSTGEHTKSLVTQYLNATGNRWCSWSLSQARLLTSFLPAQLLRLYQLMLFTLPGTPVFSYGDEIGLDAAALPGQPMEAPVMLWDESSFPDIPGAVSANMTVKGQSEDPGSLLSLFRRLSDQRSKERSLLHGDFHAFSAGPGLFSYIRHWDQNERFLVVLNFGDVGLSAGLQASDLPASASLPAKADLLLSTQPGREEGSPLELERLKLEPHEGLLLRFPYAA
# assay.remarks: cell-based or functional assay
measured.quantity: Molt4 IC50 (nM)
Dear colleague, please return just the value in nM, with no unit written.

Query: Quick one: Molt4 IC50 of CD98 (CL-huAb108)-ZT (antibody, human IgG1, kappa, L234A L235A, V domains shown, synthon ZT on reduced interchain cysteines (sites not given)) VH: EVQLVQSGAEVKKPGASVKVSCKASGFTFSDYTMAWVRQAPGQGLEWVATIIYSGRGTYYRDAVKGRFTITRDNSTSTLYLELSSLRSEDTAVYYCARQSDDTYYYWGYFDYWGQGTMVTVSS VL: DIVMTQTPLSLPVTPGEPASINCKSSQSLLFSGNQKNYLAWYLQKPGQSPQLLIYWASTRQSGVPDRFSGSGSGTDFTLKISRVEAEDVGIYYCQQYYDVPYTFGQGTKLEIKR ?
Result: 0.144

Query: Quick one: Molt4 IC50 of CD98 (CL-huAb104)-TX (antibody, human IgG1, kappa, L234A L235A, V domains shown, synthon TX on reduced interchain cysteines (sites not given)) VH: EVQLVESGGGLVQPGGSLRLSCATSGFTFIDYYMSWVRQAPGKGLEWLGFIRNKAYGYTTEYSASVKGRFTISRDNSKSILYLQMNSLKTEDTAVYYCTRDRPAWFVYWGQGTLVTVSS VL: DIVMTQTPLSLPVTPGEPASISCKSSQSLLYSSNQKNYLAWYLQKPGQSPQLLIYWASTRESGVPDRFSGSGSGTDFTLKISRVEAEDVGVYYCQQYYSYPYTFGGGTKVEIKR ?
Result: 0.06
